- TARGET_DESC: recombinant N-terminal GST-tagged human Rho kinase 2 (ROCK2, amino acids 1-552) (Homo sapiens)
- Construct: ROCK2, amino acids 1-552; purchased Invitrogen Inc. PV3759
- Sequence (O75116 1-552): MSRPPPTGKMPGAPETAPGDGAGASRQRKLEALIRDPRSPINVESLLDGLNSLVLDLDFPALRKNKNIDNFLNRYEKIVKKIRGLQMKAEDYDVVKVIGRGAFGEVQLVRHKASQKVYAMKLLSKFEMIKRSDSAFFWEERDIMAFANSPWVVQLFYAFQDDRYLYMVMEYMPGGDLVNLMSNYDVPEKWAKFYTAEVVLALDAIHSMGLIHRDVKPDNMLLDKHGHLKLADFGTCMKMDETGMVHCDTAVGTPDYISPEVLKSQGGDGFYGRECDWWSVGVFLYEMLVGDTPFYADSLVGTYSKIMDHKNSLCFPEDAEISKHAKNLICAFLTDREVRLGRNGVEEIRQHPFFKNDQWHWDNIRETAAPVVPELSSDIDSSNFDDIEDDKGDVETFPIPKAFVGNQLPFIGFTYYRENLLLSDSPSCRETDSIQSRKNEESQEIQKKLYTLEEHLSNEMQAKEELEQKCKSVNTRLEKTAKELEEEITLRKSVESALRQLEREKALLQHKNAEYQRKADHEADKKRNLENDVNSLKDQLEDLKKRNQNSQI
- METHOD: In vitro Rho kinase assay (luciferase-based ATP consumption), ROCK2
- Type: biochemical
- ASSAY_CONTEXT: recombinant GST-tagged human ROCK2, luciferase-based ATP consumption; read-out: ROCK2 IC50
The following compounds are shown together with reported IC50 values.

Before answering, review these 5 worked examples.
COMPOUND	RESULT
CCN(CC)CCNC(=O)c1ccc2sc(-c3ccnc(N)n3)c(C)c2c1	< 5 µM
COc1ccccc1CNC(=O)c1ccc2sc(-c3ccnc(N)n3)c(C)c2c1	< 5 µM
Cc1c(-c2ccnc(N)n2)sc2ccc(Nc3cccc(Oc4ccccc4)c3)cc12	< 5 µM
Cc1c(-c2ccnc(N)n2)sc2ccc(CNC(=O)C3CN(C(=O)OC(C)(C)C)CCN3)cc12 (centres unmarked)	> 5 µM
Cc1c(-c2cccnc2N)sc2ccc(Cl)cc12	> 5 µM

I would be grateful if you could share the reported IC50 for Cc1c(-c2ccnc(N)n2)sc2ccc(C(=O)N3CCN(c4ccc(C#N)cn4)CC3)cc12 .
< 5 µM

Next record, please: Cc1c(-c2ccnc(N)n2)sc2ccc(C(=O)N3CCN(C(=O)OC(C)(C)C)C[C@H]3CO)cc12
> 5 µM

Please do the same for Cc1c(-c2ccnc(N)n2)sc2ccc(C(=O)NC3CCCCC3C)cc12 (centres unmarked) as well.
> 5 µM

Try this compound too: COc1cccc(CNC(=O)c2ccc3sc(-c4ccnc(N)n4)c(C)c3c2)c1
< 5 µM

And the next one, Cc1c(-c2ccnc(N)n2)sc2ccc(C(=O)NCCc3ccc(Cl)cc3)cc12 ?
< 5 µM

Entry Cc1c(-c2ccnc(N)n2)sc2ccc(C(=O)N3CCN(c4ccc(F)cc4)CC3)cc12 please
< 5 µM
